This collection of values is drawn from PubChem BioAssay AID1159580.

test: chemical genetic growth profiling, strain panel (AID 1159580);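 further: tested at 20 µM; growth read once vehicle control cultures reached saturation at 30 °C; 1 = growth at the plate median or of vehicle wells; lower values mean less growth of the strain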; conditions: S. cerevisiae deletion strains, growth OD, locus YBR135W, strain CKS1, hits give low values
In all, about 5,500 compounds went through this assay and about 2,000 (36%) were called active. Roughly 18% stayed inconclusive and do not appear here. The list shows a part of the results.
MEASURED_PROPERTY: normalized growth
The answer should be written as a number, with no unit following it.

Please review the following examples before continuing.
1) O=C(Nc1ccccn1)c1cc(-c2ccccc2)c(C(F)(F)F)s1: 0.947
2) COc1ccccc1C(C[N+](=O)[O-])c1c(N)n(C)c(=O)n(C)c1=O (centres undefined): 0.954
3) CN(C)/C=C/C(=O)c1ccc(C#Cc2ccccc2)cc1: 0.967

Lab note: measured normalized growth of CCc1cc2c(cc1-c1csc(C/C(N)=N\O)n1)C(C)(C)CCC2(C)C was 0.969
